Each item that follows carries a reported GI50.
Test system: M19-MEL
assay_name: NCI tumour cell line growth inhibition, 48 h
Calls of active or inactive are those of the source. No stated cut-off is given here; in the data, active = GI50 up to about 1.1 µM and inactive = higher.

Here is how some compounds turned out for GI50.
COC(=O)C1Cc2c([nH]c3ccccc23)C(c2ccccc2O)N1Cc1ccccc1 (configuration not stated) ... 40.6 µM (inactive)
O=C1CNS(=O)(=O)N1 ... > 100 µM (inactive)
NC(=O)c1ncn(C2OC(CO)C(O)C2O)c1O (configuration not stated) ... > 100 µM (inactive)
COC(=O)C(=O)C(C#N)c1ccc(Cl)c(Cl)c1 (configuration not stated) ... > 100 µM (inactive)
Nc1nc(N)c(N=O)c(Nc2ccc(I)cc2)n1 ... 29.4 µM (inactive)
COC(=O)NC(=O)c1cn(C2OC(CO)C(O)C2O)c(=O)[nH]c1=O (configuration not stated) ... > 100 µM (inactive)

Here is another compound to look at.
Need GI50 of COc1ccc(OC)c2c1C(=O)C1CC1(Br)C2=O (configuration not stated) , thanks.
> 100 µM (inactive)

---

Tested on: MDA-MB-435
assay_name: NCI tumour cell line growth inhibition, 48 h
Calls of active or inactive are those of the source. Rule as the data show it: active = GI50 up to about 1.1 µM and inactive = higher.
Each item that follows carries a reported GI50.

Need GI50 of COc1cc(OC)c2nccc(NCCCN(C)C)c2c1[N+](=O)[O-] , thanks.
> 100 µM (inactive)

Need GI50 of O=c1c2ccccc2nc2[nH][nH]c(=S)n12 , thanks.
> 100 µM (inactive)

Need GI50 of O=C1C=Cc2c(Cl)sc(Cl)c21 , thanks.
2.02 µM (inactive)

---

Test system: HT-29
assay_name: NCI tumour cell line growth inhibition, 48 h
Active and inactive are the calls of the source. Rule as the data show it: active = GI50 up to about 1.1 µM and inactive = higher.
assay_readout: GI50

CCN(CC)C(=S)N/N=C(\C)c1ccccc1O ... 19.5 µM (inactive)
CC(C)=CCC(OC(=O)C=C(C)C)c1cc(O)c2c(c1O)C(=O)C=CC2=O (centres undefined) ... 1.67 µM (inactive)
CC1=CC2=C(C(N)=O)C(=O)OC2(C)C(c2ccccc2)C1 (centres undefined) ... > 100 µM (inactive)
O=C(N(C1=CCCC1)N(c1ccccc1)c1ccccc1)C(F)(F)F ... 17.3 µM (inactive)
COc1ccc(Nc2c[nH]c(=O)[nH]c2=O)cc1 ... > 100 µM (inactive)

Need GI50 of Fc1cc(C2=Nn3c(CNc4ccc(Cl)cc4)nnc3S/C2=C\c2ccc(-c3ccc(Cl)cc3)o2)c(Cl)cc1Cl , thanks.
32.8 µM (inactive)

Need GI50 of O=C1c2ccc3ccccc3c2CCC1N1CCCCC1 (centres undefined) , thanks.
20.5 µM (inactive)

Need GI50 of COCC[N+](CCNC(=O)c1cccc2c(N)c3cccc(C)c3nc12)(CCOC)Cc1ccc([N+](=O)[O-])cc1 , thanks.
18.8 µM (inactive)

Need GI50 of NC(=O)c1ccc([N+](=O)[O-])cc1 , thanks.
> 100 µM (inactive)

---

Tested on: ACHN
assay_name: NCI tumour cell line growth inhibition, 48 h
Active and inactive are the calls of the source. Rule as the data show it: active = GI50 up to about 1.1 µM and inactive = higher.
Select the matching outcome among active, inactive

Cc1ccccc1-n1c(C)nc2c1C(=O)c1ccccc1C2=O ... inactive
CC1(C)S[C@@H]2[C@H](NC(=O)/C=C/c3ccccc3)C(=O)N2[C@H]1C(=O)O ... inactive
Cn1c2ccccc2n2c(=O)c3cccnc3c(C#N)c12 ... inactive
Cc1ccc(C(=O)Nc2ccc(S(=O)(=O)O)c3cc(S(=O)(=O)O)cc(S(=O)(=O)O)c23)cc1N ... inactive

What was the test verdict on CN(CCCNC(=O)c1nn(-c2ccc(Cl)cc2Cl)c2c1ccc1ccccc12)CCCNC(=O)c1nn(-c2ccc(Cl)cc2Cl)c2c1ccc1ccccc12 ?
inactive

What was the test verdict on O=C1/C(=C\c2ccccc2)C(NC2CCCCC2)c2ccccc21 (stereo not drawn) ?
active

What was the test verdict on COc1ccccc1N1C(=O)CS(=O)(=O)C1c1cccc(Oc2ccccc2)c1 (stereo not drawn) ?
inactive

What was the test verdict on CN1CCN(CN2C(=O)C3C4C=CC(C3C2=O)C2C(=O)N(CN3CCN(C)CC3)C(=O)C42)CC1 (stereo not drawn) ?
inactive

What was the test verdict on O=C1NC(Nc2ccccc2)=N/C1=C\c1c(Cl)cccc1Cl ?
inactive

What was the test verdict on O=C1[C@@H]2C(c3c(Cl)cccc3Cl)=NO[C@@H]2C(=O)N1c1ccc(Cc2ccc(N3C(=O)[C@H]4C(c5c(Cl)cccc5Cl)=NO[C@H]4C3=O)cc2)cc1 ?
inactive

What was the test verdict on O=c1c2ccccc2nc(-c2ccccc2)n1NC1OC(CO)C(O)C(O)C1O (stereo not drawn) ?
inactive

What was the test verdict on CC(C)(CN1CCCCC1)C(/C=C/c1ccccc1)=N\NC(=O)N/N=C(/C=C/c1ccccc1)C(C)(C)CN1CCCCC1 ?
inactive

---

Tested on: 786-0
assay_name: NCI tumour cell line growth inhibition, 48 h
The source made the active and inactive calls. Rule as the data show it: active = GI50 up to about 1.1 µM and inactive = higher.
Each item that follows carries a reported GI50.

COc1ccc(OC)c(NC(=O)C(=O)NNC(=O)c2sc(NNC(C)=O)nc2C)c1 ... 35.6 µM (inactive)
Cc1cc(NS(=O)(=O)c2ccc(/N=N/c3c(O)c(C(=O)O)cc4ccccc34)cc2)nc(C)n1 ... > 100 µM (inactive)
NC(=O)c1ncn(C2OC(CO)C(O)C2O)c1O (centres undefined) ... > 100 µM (inactive)

Need GI50 of O=c1[nH]/c(=C/c2ccc(OCc3ccccc3)cn2)c(=O)[nH]/c1=C/c1ccc(F)cc1 , thanks.
0.447 µM (active)

---

Tested on: SK-MEL-5
assay_name: NCI tumour cell line growth inhibition, 48 h
The source made the active and inactive calls. Cut-off read from the data, not from the text of the source: active = GI50 up to about 1.1 µM and inactive = higher.
Select the matching outcome among active, inactive

O=C1NC(Nc2ccccc2)=N/C1=C\c1c(Cl)cccc1Cl ... inactive

What was the test verdict on Nc1ccc2c(c1)N(C(=O)CCCC(=O)N1CC(CCl)c3ccc(N)cc31)CC2CCl (stereo not drawn) ?
active

---

System: SW-620
assay_name: NCI tumour cell line growth inhibition, 48 h
The source made the active and inactive calls. Rule as the data show it: active = GI50 up to about 1.1 µM and inactive = higher.
assay_readout: GI50

CC(=O)O[C@@H]1[C@@H](C)[C@]2(CC(c3ccoc3)OC2O)C2CCC3O[C@]3(C)[C@]2(C)[C@@H]1OC(C)=O (stereo not given in full) ... 36.4 µM (inactive)
CCOc1ccc2nc(NC(=O)/C(CC(=O)CC(C3=C(O)c4ccccc4CC3=O)c3ccccc3)=N\O)sc2c1 (stereo not given) ... > 100 µM (inactive)
N#Cc1c(-c2ccccc2)c(C#N)c(=S)n(C2OC(CO)C(O)C(O)C2O)c1N (stereo not given) ... > 100 µM (inactive)
NC(=O)N/N=C\CC(O)(C(F)(F)Cl)C(F)(F)Cl ... > 10 µM (inactive)

Here is another compound to look at.
Need GI50 of CCOC(CN(C)C(=O)Nc1cccc2ccccc12)OCC , thanks.
> 10 µM (inactive)

---

System: LOX IMVI
assay_name: NCI tumour cell line growth inhibition, 48 h
Calls of active or inactive are those of the source. No stated cut-off is given here; in the data, active = GI50 up to about 1.1 µM and inactive = higher.
Select the matching outcome among class 1 (active), class 0 (inactive)

CCN(CC)CCNc1ccc2nc(C)n3c4ccc(OC)cc4c(=O)c1c23 ... class 0
O=C1Nc2c(Cl)cc(Cl)cc2/C1=N/N=C/c1ccco1 ... class 0
Nc1nc(N)c(N=O)c(Nc2ccc(I)cc2)n1 ... class 0
CCC[C@@H]1C(=O)N=C(N)N1C(=O)OCc1ccccc1 ... class 0
Cc1cccc(C(O)c2cccnc2)c1O (stereo unspecified) ... class 0
Cc1cc2nc(-c3cc(C(C)(C)C)c(O)c(C(C)(C)C)c3)[nH]c2cc1C ... class 0

What was the test verdict on COc1ccc(-c2nc(-c3cnccn3)n(C/C=C/c3ccccc3)n2)cc1 ?
class 0

What was the test verdict on COc1ccc(/[N+]([O-])=C/c2ccccc2OC(=S)S)cc1 ?
class 0

---

Test system: SF-295
assay_name: NCI tumour cell line growth inhibition, 48 h
Activity calls are given as the source filed them. Cut-off read from the data, not from the text of the source: active = GI50 up to about 1.1 µM and inactive = higher.
assay_readout: GI50

Here is how some molecules turned out for GI50.
COP(=O)(O)/C=C/C(NC(=O)C(Cl)(Cl)Cl)c1ccccc1 (stereo not drawn) ... > 100 µM (inactive)
CC(=O)C1Cn2c(nc3ccccc32)C[Se]1 (stereo not drawn) ... 3.26 µM (inactive)
O=C1/C(=C/c2ccc(Cl)cc2)N=C(c2ccccc2)N1c1ccc(S(=O)(=O)Nc2nccs2)cc1 ... 56.5 µM (inactive)
O=C(CC(=O)c1ccccc1)C(=O)Nc1ccc(Cl)cc1 ... > 100 µM (inactive)
Oc1c(C(O)(c2ccccc2)c2ccc3ccccc3c2O)ccc2ccccc12 ... 16.5 µM (inactive)

Need GI50 of COc1cccc2c1C(=O)c1c(O)c3c(c(O)c1C2=O)C[C@@](O)(C(=O)CO)CC3OC1CC(N(C)CCOCC(OC(C)=O)OC(C)=O)C(O)C(C)O1 (stereo partly drawn) , thanks.
> 0.01 µM (active)

Need GI50 of CCN(CC)C(=S)N/N=C(\C)c1ccccc1O , thanks.
15.5 µM (inactive)

Need GI50 of CCOC(CN(C)C(=O)Nc1cccc2ccccc12)OCC , thanks.
> 10 µM (inactive)
